Listing of recorded Activity by entry.
# Tested on: Toxoplasma gondii
# TEST_DESCRIPTION: Susceptibility of Toxoplasma gondii lacZ-transfected RH strain in human foreskin fibroblasts assessed as growth at 0.1 uM to 0.01 uM after 30 hrs by colorimetric assay
# Type: functional
Numbers only; they are read as %.

Worked examples, 4 compounds total:
| COMPOUND_STRUCTURE_STRING | REPORTED_METRIC | QUANTITATIVE_RESULT |
| --- | --- | --- |
| CCCCCCc1cc(=O)c2ccccc2n1O | Activity | 16.3 |
| CCCCCCCCCCCCCCc1cc(=O)c2ccccc2n1O | Activity | 37.9 |
| CCCCCCCCc1cc(=O)c2ccccc2n1O | Activity | 14.8 |
| CCCCCc1cc(=O)c2ccccc2n1O | Activity | 98.2 |

Then this compound:
Task: Quick one: Activity for CCCCCCCCCCCCc1cc(=O)c2ccccc2n1O ?
Output: 42.6
